subjectOfTest: Human IDO1 (Homo sapiens (Human))
Sequence (P14902 whole entry): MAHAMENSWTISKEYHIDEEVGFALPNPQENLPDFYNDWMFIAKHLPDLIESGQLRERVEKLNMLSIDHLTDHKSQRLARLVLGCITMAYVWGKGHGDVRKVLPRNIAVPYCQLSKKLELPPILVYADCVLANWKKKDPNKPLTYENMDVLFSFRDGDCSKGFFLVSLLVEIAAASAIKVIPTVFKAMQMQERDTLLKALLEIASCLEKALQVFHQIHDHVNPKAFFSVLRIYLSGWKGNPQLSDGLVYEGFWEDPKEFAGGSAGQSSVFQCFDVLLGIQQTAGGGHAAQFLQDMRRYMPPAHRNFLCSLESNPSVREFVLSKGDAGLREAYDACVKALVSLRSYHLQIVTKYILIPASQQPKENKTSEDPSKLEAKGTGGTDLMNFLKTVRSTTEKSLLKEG
assayOverview: IDO Kynurenine Assay with Human IDO1/HEK293 Cells
experimentalParameters: 20 hours incubation, kynurenine detected with Ehrlich reagent, absorbance at 490 nm, read-out: HEK Human IDO-1 IC50
Description: Human IDO1/HEK293 cells were seeded at 10,000 cells per 50 uL per well with RPMI/phenol red free media contains 10% FBS in a 384-well black wall clear bottom tissue culture plate (Matrix Technologies LLC) 125 nL of certain concentration of compound was then added to each well using ECHO liquid handling systems. […] The compound treatments were stopped by adding Trichloroacetic Acid (Sigma-Aldrich) to a final concentration at 0.2%. […] The absorbance at 490 nm was measured on Envision plate reader. […]
pIC50: −log10 of the molar value.

| compound | pIC50 |
| --- | --- |
| Cc1ccc(CC(=O)Nc2cc([C@H]3C[C@H]3C(=O)O)ccc2N(CC(C)C)CC(C)C)cc1 [Example 60] | 7.68 |
| Cc1cccc(NC(=O)Nc2cc([C@@H]3C[C@@H]3C(=O)O)ccc2N(CC(C)C)CC(C)C)c1 [Example 19] | 6.35 |
| CC(C)CN(CC(C)C)c1ccc([C@H]2C[C@H]2C(=O)O)cc1NC(=O)Nc1ccc(CC#N)cc1 [Example 15] | 6.27 |
| COC(=O)[C@@H]1C[C@@H]1c1ccc(N(CC(C)C)CC(C)C)c([N+](=O)[O-])c1 [Example 1J] | 8.10 |
| Cc1ncc(NC(=O)Nc2cc([C@@H]3C[C@@H]3C(=O)O)ccc2N(CC(C)C)CC(C)C)cn1 [Example 77] | 7.19 |
